System: A549-ACTB-RAB5A
method description: phenotypically active (imaging signature differs from DMSO and reproducible) at any of 0.3-9 uM (binary (1 = active, 0 = inactive)); higher = active
experimental context: treatment time: 24 h
Structures can show the parent of a compound that is named as a salt.
Recorded phenotypically active by entry
Kindly provide the number alone.

> print(dat)
                                   compound  observed
1  C[C@@H]1CN(Cc2ccc(F)cc2)[C@@H](C)CN1C(=O)c1cc2c(C(=O)C(=O)N(C)C)cn(C)c2cc1Cl [SCIO 469 hydrochloride]         0
2  COCc1c(C(C)C)nc(C(C)C)c(/C=C/[C@@H](O)C[C@@H](O)CC(=O)O)c1-c1ccc(F)cc1         1
3    CCCN[C@H]1CCc2nc(N)sc2C1 [pramipexole]         0
4  CC[N+](CC)(CC)CCC(O)(c1ccccc1)C1CCCCC1 (centres undefined)         0
5  O=S(=O)(c1cccc2c(O)nccc12)N1CCCNCC1 [HA 1100 hydrochloride]         1

Find the recorded phenotypically active belonging to CNC[C@H](O)c1ccc(O)c(O)c1 [epinephrine] and report it.
0

Find the recorded phenotypically active belonging to Cc1ccc(-c2cc(C(F)(F)F)nn2-c2ccc(S(N)(=O)=O)cc2)cc1 and report it.
0

Find the recorded phenotypically active belonging to CC(=O)N[C@@H]1[C@@H](O[C@H](C)C(=O)O)[C@H](O)[C@@H](CO)O[C@@H]1O and report it.
0

Find the recorded phenotypically active belonging to CNC1CCC2(C)C(=CCC3C2CCC24CN(C)C(C)C2CCC34)C1 (centres undefined) and report it.
1

---

System: HepG2-CANX-COX4
method description: phenotypically active (imaging signature differs from DMSO and reproducible) at any of 0.3-9 uM (binary (1 = active, 0 = inactive)); higher = active
experimental context: treatment time: 24 h
Where a name gives a salt, the structure may show the parent alone.
API: response.call in active, inactive

Some solved entries appear below for comparison.
compound	discrete label
CCCC1(CCC)CCC2(CCN(CCCN(CC)CC)C2)CC1 [Atiprimod dihydrochloride]	active
O=c1c(-c2ccc(O)cc2)coc2cc(O[C@@H]3O[C@H](CO)[C@@H](O)[C@H](O)[C@H]3O)cc(O)c12 [Genistin]	inactive
CCC1(c2ccccc2)NC(=O)N(C)C1=O (configuration not stated) [Mephenytoin]	inactive
COc1cc(OC)c2c(=O)[nH]c(-c3cc(C)c(OCCO)c(C)c3)nc2c1 [apabetalone]	active
CC(=O)O[C@@]12CO[C@@H]1C[C@H](O)[C@@]1(C)C(=O)[C@H](O)C3=C(C)[C@@H](OC(=O)[C@H](O)[C@@H](NC(=O)OC(C)(C)C)c4ccccc4)C[C@](O)([C@@H](OC(=O)c4ccccc4)[C@H]21)C3(C)C [Docetaxel]	active

# outcome recorded in this test, key = CCCOc1ccn2c(C(C)=O)cc(-c3ccccc3S(C)(=O)=O)c2c1
inactive

# outcome recorded in this test, key = COc1cc(N2CCOCC2)ccc1Nc1ncc(Cl)c(Nc2ccccc2NS(C)(=O)=O)n1
active

---

Test system: A549-TUBA1B-RELA
method description: phenotypically active (imaging signature differs from DMSO and reproducible) at any of 0.3-9 uM (binary (1 = active, 0 = inactive)); higher = active
experimental context: treatment time: 24 h
Counter-ions that a name gives are not always drawn.
readout type: phenotypically active

> print(dat)
                                   compound    assayed.system           readout.type      observed
1  CC1(C)CC(=O)C2=C(C1)NC(=S)NC2c1cccc(O)c1 (stereo not given)  A549-TUBA1B-RELA  phenotypically active    1 (active)
2  O=[N+]([O-])c1cc(Cl)ccc1S(=O)(=O)c1ccccc1  A549-TUBA1B-RELA  phenotypically active  0 (inactive)
3                         NCCc1ccc(O)c(O)c1  A549-TUBA1B-RELA  phenotypically active  0 (inactive)

Find the recorded phenotypically active belonging to Cc1cc(/N=N/c2cc(S(=O)(=O)O)c(C)cc2C)c(N)cc1O [Ischemin sodium salt] and report it.
0 (inactive)

Find the recorded phenotypically active belonging to COc1ccc2cc(CCC(C)=O)ccc2c1 and report it.
0 (inactive)

Find the recorded phenotypically active belonging to O=C(Nc1cccnn1)N1CCN(c2nccc(-c3ccc(F)c(F)c3)n2)CC1 and report it.
0 (inactive)

Find the recorded phenotypically active belonging to CNCCC(Oc1ccc(C(F)(F)F)cc1)c1ccccc1 (stereo not given) and report it.
1 (active)

Find the recorded phenotypically active belonging to COc1ccc(CCN(C)CCCN2CCc3cc(OC)c(OC)cc3CC2=O)cc1OC and report it.
0 (inactive)

Find the recorded phenotypically active belonging to CCOC(=O)C1=C(C)NC(=S)N[C@H]1c1cccc(O)c1 and report it.
0 (inactive)

Find the recorded phenotypically active belonging to CNCC(O)c1ccc(OC(=O)C(C)(C)C)c(OC(=O)C(C)(C)C)c1 (stereo not given) and report it.
0 (inactive)

---

Recorded phenotypically active by entry
System: A549-CANX-COX4
method description: phenotypically active (imaging signature differs from DMSO and reproducible) at any of 0.3-9 uM (binary (1 = active, 0 = inactive)); higher = active
experimental context: treatment time: 24 h

Some compounds with known phenotypically active results, for comparison:
> print(dat)
                                   compound      observed
1  C[C@@H]1O[C@@H](O[C@H]2C(=O)c3c(O)cc(O)cc3O[C@@H]2c2ccc(O)c(O)c2)[C@H](O)[C@H](O)[C@H]1O  0 (inactive)
2  COc1cc(N2CCC(N)CC2)ccc1Nc1ncc(Cl)c(-c2c[nH]c3ccccc23)n1  0 (inactive)
3  C[C@H](NC(=O)CCc1nc2ccccc2c(=O)[nH]1)c1ccccc1  0 (inactive)
4          CCOCCn1c(N2CCCN(C)CC2)nc2ccccc21  0 (inactive)
5         CNCC[C@H](Oc1cccc2ccccc12)c1cccs1  0 (inactive)

Now examine the next entry.
phenotypically active of CN1c2ccccc2C(=O)N2CCc3c([nH]c4ccccc34)[C@H]21 on A549-CANX-COX4?
1 (active)

---

Tested on: HepG2-TP53BP1-CLTA
method description: phenotypically active (imaging signature differs from DMSO and reproducible) at any of 0.3-9 uM (binary (1 = active, 0 = inactive)); higher = active
experimental context: treatment time: 24 h
Counter-ions that a name gives are not always drawn.
Recorded phenotypically active by entry
Kindly provide the number alone.

Some compounds with known phenotypically active results, for comparison:
compound	phenotypically active
COc1cc(N2CCC(N)CC2)ccc1Nc1ncc(Cl)c(-c2c[nH]c3ccccc23)n1	1
Cc1cccc(-c2nn(C(=S)Nc3ccccc3)cc2-c2ccnc3ccccc23)n1	1
CCC1(O)CC2CN(CCc3c([nH]c4ccccc34)C(C(=O)OC)(c3cc4c(cc3OC)N(C)C3C(O)(C(=O)OC)C(OC(C)=O)C5(CC)C=CCN6CCC43C65)C2)C1 (centres undefined) [Vinblastine sulfate]	1

Find the recorded phenotypically active belonging to OC[C@H]1O[C@@H](Oc2ccc(O)cc2)[C@H](O)[C@@H](O)[C@@H]1O and report it.
0

---

Tested on: WPMY1-TP53BP1-CLTA
method description: phenotypically active (imaging signature differs from DMSO and reproducible) at any of 0.3-9 uM (binary (1 = active, 0 = inactive)); higher = active
experimental context: treatment time: 24 h
API: response.call in Y = active, N = inactive

Some solved entries appear below for comparison.
> print(dat)
                                   compound  discrete.label
1  O=C1N(c2ccccc2)c2ccccc2C1(Cc1ccncc1)Cc1ccncc1               N
2  COc1cc(O)c2c(c1C1CCCN1)OC(c1ccc(O)cc1)CC2 (centres undefined) [Vochysine (4 dia/énantio)]               N
3          O=P(O)(O)C(O)(Cn1ccnc1)P(=O)(O)O               N
4  Nc1ncnc2c1c(-c1cnc3[nH]ccc3c1)nn2C1CCCC1               Y
5  Cc1c(C)c2c(c(C)c1O)CC[C@@](C)(CCC[C@H](C)CCC[C@H](C)CCCC(C)C)O2 [Tocopherol (R,S)]               N
6  CCCCc1nc(Cl)c(CO)n1Cc1ccc(-c2ccccc2-c2nnn[nH]2)cc1               N

# outcome recorded in this test, key = Cc1ccc(NC(=O)c2ccc(CN3CCN(C)CC3)cc2)cc1Nc1nc(-c2cccnc2)cs1
Y

# outcome recorded in this test, key = CCN(CC)CC(=O)Nc1c(C)cccc1C
N

# outcome recorded in this test, key = Cc1cccc(-c2n[nH]cc2-c2ccc(F)c(-c3cnn(CCO)c3)c2)n1
Y

Measured values drawn from the supplement of paper PMC7411054 for this set.
